These entries and their values trace back to ChEMBL document CHEMBL2424580.

assay: Metabolic stability in Sprague-Dawley rat plasma assessed as intact compound level at 24.1 MBq, iv after 50 mins by gamma counting analysis; assay type: ADME, organism-based; details: read-out: Stability
value.kind: remaining at 50 min
Write the numeric value and follow it with the unit.

IN: In one line, give reported remaining at 50 min of the entry "[11CH3]Oc1cc(NC(=O)c2ccccn2)ccc1Cl" .
OUT: 10%
